Known Calcium - Juice (48 Hours) of a selection of compounds
# experimentalProtocol: Physical/chemical attributes (calcium, pH, titratable acidity, Brix, Brix/Acid ratio) of calcium fortified orange juice
# Type: physicochemical
# Design: unit not given here
# reportedConditions: orange juice fortified at 450 mg/100 mL calcium load

[
  {
    "compound": "O=C([O-])CC(O)(CC(=O)[O-])C(=O)[O-].O=C([O-])CC(O)(CC(=O)[O-])C(=O)[O-].[Ca+2].[Ca+2].[Ca+2] [tri-calcium citrate]",
    "Calcium - Juice (48 Hours)": 177
  },
  {
    "compound": "O=P([O-])([O-])[O-].O=P([O-])([O-])[O-].[Ca+2].[Ca+2].[Ca+2] [tricalcium phosphate (fine), tricalcium phosphate]",
    "Calcium - Juice (48 Hours)": 197
  },
  {
    "compound": "O=C[O-].O=C[O-].[Ca+2] [calcium formate]",
    "Calcium - Juice (48 Hours)": 206
  },
  {
    "compound": "O.O.O=C([O-])[C@H](O)[C@@H](O)C(=O)[O-].[Ca+2] [calcium L-tartrate dihydrate]",
    "Calcium - Juice (48 Hours)": 140
  },
  {
    "compound": "O.O.O.O=C([O-])/C=C/C(=O)[O-].[Ca+2] [calcium fumarate trihydrate]",
    "Calcium - Juice (48 Hours)": 202
  },
  {
    "compound": "O.O=C([O-])CCC(=O)[O-].[Ca+2] [calcium succinate monohydrate]",
    "Calcium - Juice (48 Hours)": 206
  },
  {
    "compound": "O=C([O-])CC(O)C(=O)[O-].[Ca+2] (centres unmarked) [calcium malate]",
    "Calcium - Juice (48 Hours)": 213
  },
  {
    "compound": "CC(O)C(=O)[O-].CC(O)C(=O)[O-].O.O.O.O.O.[Ca+2] (centres unmarked) [calcium lactate pentahydrate]",
    "Calcium - Juice (48 Hours)": 204
  }
]
